- target-entity: Hepatocyte growth factor receptor (Homo sapiens, UniProt P08581)
- Sequence (P08581 whole entry): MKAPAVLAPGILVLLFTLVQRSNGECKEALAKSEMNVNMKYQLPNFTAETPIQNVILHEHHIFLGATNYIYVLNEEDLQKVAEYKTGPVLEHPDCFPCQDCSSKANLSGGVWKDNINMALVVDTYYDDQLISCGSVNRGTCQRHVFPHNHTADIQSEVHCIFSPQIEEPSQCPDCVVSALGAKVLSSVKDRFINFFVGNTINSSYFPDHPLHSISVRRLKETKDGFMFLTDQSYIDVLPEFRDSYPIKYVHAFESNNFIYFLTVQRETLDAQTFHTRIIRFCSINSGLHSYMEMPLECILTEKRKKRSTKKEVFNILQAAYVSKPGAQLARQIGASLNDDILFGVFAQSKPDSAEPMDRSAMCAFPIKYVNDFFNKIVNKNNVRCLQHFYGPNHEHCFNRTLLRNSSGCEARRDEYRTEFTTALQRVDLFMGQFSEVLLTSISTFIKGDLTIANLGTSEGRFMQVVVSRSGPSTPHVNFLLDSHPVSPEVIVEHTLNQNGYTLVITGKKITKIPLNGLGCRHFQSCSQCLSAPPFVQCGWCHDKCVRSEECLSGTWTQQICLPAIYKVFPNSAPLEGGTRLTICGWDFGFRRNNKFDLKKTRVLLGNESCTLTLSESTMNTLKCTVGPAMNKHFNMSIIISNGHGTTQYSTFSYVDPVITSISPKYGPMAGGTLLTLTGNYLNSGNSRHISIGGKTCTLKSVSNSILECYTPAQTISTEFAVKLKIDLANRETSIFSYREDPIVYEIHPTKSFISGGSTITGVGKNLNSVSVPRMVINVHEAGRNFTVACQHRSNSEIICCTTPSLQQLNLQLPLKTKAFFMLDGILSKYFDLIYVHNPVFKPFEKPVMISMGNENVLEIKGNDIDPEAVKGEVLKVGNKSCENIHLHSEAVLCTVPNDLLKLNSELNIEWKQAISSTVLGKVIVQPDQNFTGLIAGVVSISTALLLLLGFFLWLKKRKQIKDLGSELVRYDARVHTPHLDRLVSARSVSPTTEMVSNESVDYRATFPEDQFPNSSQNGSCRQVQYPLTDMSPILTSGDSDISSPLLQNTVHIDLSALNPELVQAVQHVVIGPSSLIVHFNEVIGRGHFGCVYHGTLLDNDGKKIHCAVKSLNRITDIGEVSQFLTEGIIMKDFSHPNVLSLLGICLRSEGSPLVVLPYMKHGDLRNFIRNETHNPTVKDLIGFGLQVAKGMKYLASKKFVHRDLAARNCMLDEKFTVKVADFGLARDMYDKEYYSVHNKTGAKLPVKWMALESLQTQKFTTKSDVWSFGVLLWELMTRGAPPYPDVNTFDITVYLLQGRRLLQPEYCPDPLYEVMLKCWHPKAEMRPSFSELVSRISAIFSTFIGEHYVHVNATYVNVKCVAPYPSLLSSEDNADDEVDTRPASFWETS
- test-details: Inhibition of c-Met by HTRF assay
measure: IC50 (nM)
Only the number, expressed in nM, is required.

Requested read-out: IC50. Entry: COc1ccc2c(OCc3nnc4ccc(-c5cc(F)c(F)c(F)c5)nn34)ccnc2c1 4

* * *

- test-details: Clearance in rat liver microsomes
- Type: ADME, Microsome
measure: microsomal CLint (µL/min/mg)
Only the number, expressed in µL/min/mg, is required.

Requested read-out: microsomal CLint. Entry: COc1ccc2c(OCc3nnc4ccc(-c5cc(C)ns5)nn34)ccnc2c1 420

Please do the same for COc1ccc2c(OCc3nnc4ccc(-c5cc(F)c(F)c(F)c5)nn34)ccnc2c1 as well. 190

Please do the same for COc1ccc2c(OCc3nnc4ccc(-c5ccccc5)nn34)ccnc2c1 as well. 131

* * *

For each of the compounds below, state its bioavailability.
- test-details: Bioavailability in Sprague-Dawley rat at 2 mg/kg, po
- Assay type: ADME, organism-based
- measurement-setup: in vivo
Only the number, expressed in %, is required.

Requested read-out: bioavailability. Entry: COc1ccc2c(OCc3nnc4ccc(-c5ccccc5)nn34)ccnc2c1 [AMG-208] 43

Please do the same for COc1ccc2c(OCc3nnc4ccc(-c5cc(F)c(F)c(F)c5)nn34)ccnc2c1 as well. 22

Please do the same for COc1ccc2c(OCc3nnc4ccc(-c5cc(C)ns5)nn34)ccnc2c1 as well. 59

* * *

For each of the molecules below, state its half-life.
- test-details: Half life in Sprague-Dawley rat at 0.25 mg/kg, iv
- Type: ADME, organism-based
- Design: dose 0.25 mg/kg, route intravenous
- measurement-setup: in vivo
Only the number, expressed in h, is required.

Requested read-out: half-life. Entry: COc1ccc2c(OCc3nnc4ccc(-c5cc(F)c(F)c(F)c5)nn34)ccnc2c1 3.5

Please do the same for COc1ccc2c(OCc3nnc4ccc(-c5cc(C)ns5)nn34)ccnc2c1 as well. 2.58

* * *

- test-details: Half life in Sprague-Dawley rat at 0.5 mg/kg, iv
- Assay type: ADME, organism-based
- Design: dose 0.5 mg/kg, route intravenous
- measurement-setup: in vivo
measure: half-life (h)
Only the number, expressed in h, is required.

Requested read-out: half-life. Entry: COc1ccc2c(OCc3nnc4ccc(-c5ccccc5)nn34)ccnc2c1 [AMG-208] 1

* * *

- test-details: Clearance in mouse liver microsomes
- Type: ADME, Microsome
For each of the compounds below, state its microsomal CLint.
Only the number, expressed in µL/min/mg, is required.

Requested read-out: microsomal CLint. Entry: COc1ccc2c(OCc3nnc4ccc(-c5cc(F)c(F)c(F)c5)nn34)ccnc2c1 156

Please do the same for COc1ccc2c(OCc3nnc4ccc(-c5ccccc5)nn34)ccnc2c1 as well. 122

Please do the same for COc1ccc2c(OCc3nnc4ccc(-c5cc(C)ns5)nn34)ccnc2c1 as well. 173

* * *

- test-details: Clearance in Sprague-Dawley rat at 0.5 mg/kg, iv
- Format: ADME, organism-based
- Design: dose 0.5 mg/kg, route intravenous
- measurement-setup: in vivo
measure: clearance (mL/min/kg)
Only the number, expressed in mL/min/kg, is required.

Requested read-out: clearance. Entry: COc1ccc2c(OCc3nnc4ccc(-c5ccccc5)nn34)ccnc2c1 [AMG-208] 6.17

The origin of these recorded values is ChEMBL document CHEMBL1150286.
